Tested on: IgG and IgM
Test: Amount of antibodies formed in mice, PHA reaction
Type: in vivo, mice (BALB/c strain), female
Conditions: Table 11, hypodermic, 100 mg/Kg/day for 5 days; serum 9 days after; control 380.2 (269.2-537.0)
Description: The collected serum was diluted in various concentrations and incubated with sheep red blood cells coupled with DNP-As using bis-diazoated benzydine to determine the dilution of the serum which induced the minimum hemaglutination. Effects on the formation of homocytotropic antibodies in mice Groups each consisting of 5 female mice (BALB/c strain) were used in this experiment. […]

molecule: CC(C)COC1(CO)OCC(O)C(O)C1O [Compound No. 10, isobutyl-α-L-sorbopyranoside]
PHA of mice (serum dilution): 154.9 (125.9-190.6)

molecule: CCCCOC1(CO)OCC(O)C(O)C1O [Compound No. 9, n-butyl-α-L-sorbopyranoside]
PHA of mice (serum dilution): 288.4 (245.5-354.8)

molecule: CCCCCCOC1(CO)OCC(O)C(O)C1O [Compound No. 13, n-hexyl-α-L-sorbopyranoside]
PHA of mice (serum dilution): 125.9 (83.2-190.6)

molecule: CC(C)CCOC1(CO)OCC(O)C(O)C1O [Compound No. 12, isopentyl-2-L-sorbopyranoside]
PHA of mice (serum dilution): 218.8 (109.7-436.5)

molecule: CCCOC1(CO)OCC(O)C(O)C1O [Compound No. 7, n-propyl-α-L-sorbopyranoside]
PHA of mice (serum dilution): 309.0 (251.2-380.2)

* * *

Experiment: Acute poisoning test on mice
Settings: mouse, in vivo, po, orally, male, three weeks
valueKind: LD50 at 504 h

compound: CCCOC1(CO)OCC(O)C(O)C1O [Compound No. 7, n-propyl-α-L-sorbopyranoside]
valueKind: LD50 at 504 h
measuredResult: > 5000 mg/kg

compound: CCCCCOC1(CO)OCC(O)C(O)C1O [Compound No. 4, n-pentyl-β-D-fructopyranoside]
valueKind: LD50 at 504 h
measuredResult: 3800 mg/kg

compound: CC(C)COC1(CO)OCC(O)C(O)C1O [Compound No. 10, isobutyl-α-L-sorbopyranoside]
valueKind: LD50 at 504 h
measuredResult: 2000 to 5000 mg/kg

* * *

Assay: Acute poisoning test on rats
Conditions: rat, in vivo, sc, hypodermically, female, three weeks
valueKind: LD50 at 504 h (mg/kg)

compound: CCCCCOC1(CO)OCC(O)C(O)C1O [Compound No. 4, n-pentyl-β-D-fructopyranoside]
valueKind: LD50 at 504 h
unitSymbol: mg/kg
comparisonSymbol: =
measuredResult: 1300
--
compound: CC(C)COC1(CO)OCC(O)C(O)C1O [Compound No. 10, isobutyl-α-L-sorbopyranoside]
valueKind: LD50 at 504 h
unitSymbol: mg/kg
comparisonSymbol: >
measuredResult: 5000

* * *

Reported LD50 at 504 h values follow for various compounds
Test: Acute poisoning test on mice
Conditions: mouse, in vivo, ip, abdominally, male, three weeks

compound: CCCCCOC1(CO)OCC(O)C(O)C1O [Compound No. 4, n-pentyl-β-D-fructopyranoside]
LD50 at 504 h: 2590 mg/kg

compound: CC(C)COC1(CO)OCC(O)C(O)C1O [Compound No. 10, isobutyl-α-L-sorbopyranoside]
LD50 at 504 h: 500 to 1000 mg/kg

compound: CCCOC1(CO)OCC(O)C(O)C1O [Compound No. 7, n-propyl-α-L-sorbopyranoside]
LD50 at 504 h: > 1000 mg/kg
